experiment: GAPDH and PEG-3 promoter luciferase suppression – cell-based, luminescence, set 2, counter-screen for PEG-3 promoter inhibitor project, dose response (AID 651549); conditions: HeLa PEG-Prom-luciferase or GAPDH-reporter, 6/24 h, PEG-3, run 1, 6 h
Active and inactive are the calls of the source.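 How the source made its calls: active means compounds blocking the PEG3 reporter with IC50 up to 10 µM at either incubation, yet sparing the GAPDH control reporter; inactive means the rest.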
Outcomes you can answer with include only these: T = active, F = inactive

Worked set:
QUERY: Look up the recorded call for CCSc1nc2ccccc2n1C(=O)/C=C\c1ccc(OC)c(OC)c1 in this test.
RESULT: T

QUERY: Look up the recorded call for O=C(O)c1ccc(Nc2nc3c(s2)CCCC3)cc1 in this test.
RESULT: F

QUERY: Look up the recorded call for Cc1cc(C)cc(NS(=O)(=O)c2ccc3c(c2)c(=O)n(C)c(=O)n3C)c1 in this test.
RESULT: F

QUERY: Look up the recorded call for Cc1cc2cc(CCNC(=O)C(=O)c3c[nH]c4ccccc34)c(=O)[nH]c2cc1C in this test.
RESULT: F

QUERY: Look up the recorded call for CCCn1nc(C(=O)Nc2nc(-c3ccccn3)cs2)c2ccccc2c1=O in this test.
RESULT: F

QUERY: Look up the recorded call for C[C@]12CC[C@H]3C(CCC4(O)CC(O)CC[C@]34C=O)C1=CC[C@H]2c1ccc(=O)oc1 (stereo not given in full) in this test.
RESULT: T

QUERY: Look up the recorded call for CC(=O)OC1(C)CC(C)C(=O)C(C(O)CC2CC(=O)NC(=O)C2)C1 (stereo not given) in this test.
RESULT: T

QUERY: Look up the recorded call for CC(C)(C)c1ccc(Oc2ccc(N)cc2)cc1 in this test.
RESULT: T

New cases:
QUERY: Look up the recorded call for CC(=O)OC1CC[C@]2(C#N)[C@H]3CC[C@]4(C)[C@H](C5C=CC(=O)O5)CCC4(O)C3CCC2(O)C1 (stereo not given in full) in this test.
RESULT: T

QUERY: Look up the recorded call for CC1CCN(c2nc3ccc(C(=O)O)cc3s2)CC1 in this test.
RESULT: T

Every entry's value here was drawn from PubChem BioAssay AID651549.
